Every entry's value here was drawn from ChEMBL document CHEMBL4190180.

tested on: T47D; test: Antiproliferative activity against human T47D cells after 72 hrs by MTT assay; type: functional, cell-based
Field 'label' (enum: class 1 / class 0). Set to class 1 when IC50 is strictly under 20 µM; else class 0.

INSERT INTO assay_data (smilesrepresentation, systemname, discretelabel) VALUES
  ('CC(C)(F)CC[C@@H]1OC(C)(C)O[C@]1(C)[C@H]1CC[C@@]2(F)C3=CC(=O)[C@@H]4C[C@H]5OC(C)(C)O[C@H]5C[C@]4(C)[C@H]3CC[C@]12C', 'T47D', 'class 0'),
  ('CC(C)(F)CC[C@@H]1OC(C)(C)O[C@]1(C)[C@H]1CC[C@@]2(O)C3=CC(=O)[C@@H]4C[C@H]5OC(C)(C)O[C@H]5C[C@]4(C)[C@H]3CC[C@]12C', 'T47D', 'class 0'),
  ('CC(C)(O)CC[C@@H]1OC(C)(C)O[C@]1(C)[C@H]1CC[C@@]2(O)C3=CC(=O)[C@@H]4C[C@H]5OC(C)(C)O[C@H]5C[C@]4(C)[C@H]3CC[C@]12C', 'T47D', 'class 0'),
  ('CC(C)(F)CC[C@@H]1OC(C)(C)O[C@]1(C)[C@H]1CC=C2C3=CC(=O)[C@@H]4C[C@H]5OC(C)(C)O[C@H]5C[C@]4(C)[C@H]3CC[C@@]21C', 'T47D', 'class 1');

Now for another entry.
Qu. State whether 20 µM exceeds IC50 recorded for CC(C)(O)CC[C@@H]1OC(C)(C)O[C@]1(C)[C@H]1CC=C2C3=CC(=O)[C@@H]4C[C@H]5OC(C)(C)O[C@H]5C[C@]4(C)[C@H]3CC[C@@]21C .
Ans. class 1

---

target: ATP-dependent translocase ABCB1 (Homo sapiens); assay: Inhibition of human ABCB1 expressed in mouse L5178 cells assessed as potentiation of doxorubicin-induced cytotoxicity by measuring combination index at ED50 in presence of 10.2:1 ratio of doxorubicin to test compound after 48 hrs by MTT assay; assay type: cell-based
experimentalEndpoint: CI
Give bare numbers.

Solved cases below.
INSERT INTO results (smilesrepresentation, observedmeasurement) VALUES
  ('CC(C)(O)CC[C@@H]1OC(C)(C)O[C@]1(C)[C@H]1CC[C@@]2(O)C3=CC(=O)[C@@H]4C[C@H]5OC(C)(C)O[C@H]5C[C@]4(C)[C@H]3CC[C@]12C', 0.31),
  ('CC(C)(F)CC[C@@H]1OC(C)(C)O[C@]1(C)[C@H]1CC[C@@]2(F)C3=CC(=O)[C@@H]4C[C@H]5OC(C)(C)O[C@H]5C[C@]4(C)[C@H]3CC[C@]12C', 0.23),
  ('CC(C)(F)CC[C@@H]1OC(C)(C)O[C@]1(C)[C@H]1CC[C@@]2(O)C3=CC(=O)[C@@H]4C[C@H]5OC(C)(C)O[C@H]5C[C@]4(C)[C@H]3CC[C@]12C', 0.19),
  ('CC(C)(F)CC[C@@H]1OC(C)(C)O[C@]1(C)[C@H]1CC=C2C3=CC(=O)[C@@H]4C[C@H]5OC(C)(C)O[C@H]5C[C@]4(C)[C@H]3CC[C@@]21C', 0.56);

Please find the next compound below.
Qu. Need CI of CC(C)(O)CC[C@@H]1OC(C)(C)O[C@]1(C)[C@H]1CC=C2C3=CC(=O)[C@@H]4C[C@H]5OC(C)(C)O[C@H]5C[C@]4(C)[C@H]3CC[C@@]21C , thanks.
Ans. 0.55

---

target: ATP-dependent translocase ABCB1 (Homo sapiens, UniProt P08183); assay: Inhibition of human ABCB1 expressed in mouse L5178 cells assessed as potentiation of doxorubicin-induced cytotoxicity by measuring combination index at ED50 in presence of 20.4:1 ratio of doxorubicin to test compound after 48 hrs by MTT assay; type: cell-based
Sequence (P08183 whole entry): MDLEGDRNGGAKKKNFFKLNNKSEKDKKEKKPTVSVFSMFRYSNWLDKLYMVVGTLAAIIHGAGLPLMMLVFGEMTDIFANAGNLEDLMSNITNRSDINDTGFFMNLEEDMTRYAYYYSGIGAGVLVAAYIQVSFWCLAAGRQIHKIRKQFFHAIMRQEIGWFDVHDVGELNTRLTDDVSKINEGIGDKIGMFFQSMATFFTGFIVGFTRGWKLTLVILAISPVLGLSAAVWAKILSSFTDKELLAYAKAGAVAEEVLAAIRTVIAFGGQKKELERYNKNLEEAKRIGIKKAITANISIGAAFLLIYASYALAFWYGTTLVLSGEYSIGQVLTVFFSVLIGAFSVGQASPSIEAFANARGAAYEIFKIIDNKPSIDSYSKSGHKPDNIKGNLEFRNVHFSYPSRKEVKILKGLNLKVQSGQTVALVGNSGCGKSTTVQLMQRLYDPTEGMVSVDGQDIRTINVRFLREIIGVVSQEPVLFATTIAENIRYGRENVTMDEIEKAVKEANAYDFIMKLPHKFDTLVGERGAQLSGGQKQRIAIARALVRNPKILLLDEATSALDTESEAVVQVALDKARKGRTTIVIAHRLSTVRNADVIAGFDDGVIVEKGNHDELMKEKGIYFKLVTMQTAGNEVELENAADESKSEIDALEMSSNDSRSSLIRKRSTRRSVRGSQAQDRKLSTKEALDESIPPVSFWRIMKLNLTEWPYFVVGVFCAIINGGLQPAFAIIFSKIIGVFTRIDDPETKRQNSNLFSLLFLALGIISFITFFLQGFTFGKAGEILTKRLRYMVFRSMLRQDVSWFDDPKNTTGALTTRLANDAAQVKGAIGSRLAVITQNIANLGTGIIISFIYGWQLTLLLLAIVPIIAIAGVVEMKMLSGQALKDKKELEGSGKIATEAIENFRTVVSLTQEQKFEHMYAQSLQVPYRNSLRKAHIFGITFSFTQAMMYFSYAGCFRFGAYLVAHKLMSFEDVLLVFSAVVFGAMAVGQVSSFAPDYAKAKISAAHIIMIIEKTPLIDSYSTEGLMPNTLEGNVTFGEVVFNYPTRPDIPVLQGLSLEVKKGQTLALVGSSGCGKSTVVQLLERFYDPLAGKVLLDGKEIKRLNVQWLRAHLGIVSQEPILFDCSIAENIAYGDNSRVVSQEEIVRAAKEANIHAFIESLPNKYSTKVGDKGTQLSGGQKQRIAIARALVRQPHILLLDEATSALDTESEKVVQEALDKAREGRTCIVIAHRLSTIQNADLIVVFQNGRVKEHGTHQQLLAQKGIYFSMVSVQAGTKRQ
Assign CI to each entry below.
Answers are plain numbers.

INSERT INTO results (smilesrepresentation, observedmeasurement) VALUES
  ('CC(C)(F)CC[C@@H]1OC(C)(C)O[C@]1(C)[C@H]1CC=C2C3=CC(=O)[C@@H]4C[C@H]5OC(C)(C)O[C@H]5C[C@]4(C)[C@H]3CC[C@@]21C', 0.48);

Return reported CI values for all items listed beneath this line.
1. CC(C)(O)CC[C@@H]1OC(C)(C)O[C@]1(C)[C@H]1CC[C@@]2(O)C3=CC(=O)[C@@H]4C[C@H]5OC(C)(C)O[C@H]5C[C@]4(C)[C@H]3CC[C@]12C
2. CC(C)(F)CC[C@@H]1OC(C)(C)O[C@]1(C)[C@H]1CC[C@@]2(O)C3=CC(=O)[C@@H]4C[C@H]5OC(C)(C)O[C@H]5C[C@]4(C)[C@H]3CC[C@]12C
3. CC(C)(F)CC[C@@H]1OC(C)(C)O[C@]1(C)[C@H]1CC[C@@]2(F)C3=CC(=O)[C@@H]4C[C@H]5OC(C)(C)O[C@H]5C[C@]4(C)[C@H]3CC[C@]12C
4. CC(C)(O)CC[C@@H]1OC(C)(C)O[C@]1(C)[C@H]1CC=C2C3=CC(=O)[C@@H]4C[C@H]5OC(C)(C)O[C@H]5C[C@]4(C)[C@H]3CC[C@@]21C

Ans.
1. 0.27
2. 0.19
3. 0.21
4. 0.54

---

assay: Potentiation of doxorubicin-induced cytotoxicity in mouse L5178 cells assessed as combination index at ED90 in presence of 163:1 ratio of doxorubicin to test compound after 48 hrs by MTT assay; format: functional
experimentalEndpoint: CI
Give bare numbers.

Please review the entries below; each comes with its answer.
INSERT INTO results (smilesrepresentation, experimentalendpoint, observedmeasurement) VALUES
  ('CC(C)(O)CC[C@@H]1OC(C)(C)O[C@]1(C)[C@H]1CC[C@@]2(O)C3=CC(=O)[C@@H]4C[C@H]5OC(C)(C)O[C@H]5C[C@]4(C)[C@H]3CC[C@]12C', 'CI', 0.46),
  ('CC(C)(F)CC[C@@H]1OC(C)(C)O[C@]1(C)[C@H]1CC=C2C3=CC(=O)[C@@H]4C[C@H]5OC(C)(C)O[C@H]5C[C@]4(C)[C@H]3CC[C@@]21C', 'CI', 0.95),
  ('CC(C)(F)CC[C@@H]1OC(C)(C)O[C@]1(C)[C@H]1CC[C@@]2(O)C3=CC(=O)[C@@H]4C[C@H]5OC(C)(C)O[C@H]5C[C@]4(C)[C@H]3CC[C@]12C', 'CI', 0.71),
  ('CC(C)(O)CC[C@@H]1OC(C)(C)O[C@]1(C)[C@H]1CC=C2C3=CC(=O)[C@@H]4C[C@H]5OC(C)(C)O[C@H]5C[C@]4(C)[C@H]3CC[C@@]21C', 'CI', 0.86);

Qu. // returns reported CI for input CC(C)(F)CC[C@@H]1OC(C)(C)O[C@]1(C)[C@H]1CC[C@@]2(F)C3=CC(=O)[C@@H]4C[C@H]5OC(C)(C)O[C@H]5C[C@]4(C)[C@H]3CC[C@]12C
Ans. 0.34

---

target: ATP-dependent translocase ABCB1 (Homo sapiens, UniProt P08183); experiment: Inhibition of human ABCB1 expressed in mouse L5178 cells assessed as potentiation of doxorubicin-induced cytotoxicity by measuring combination index at ED50 in presence of 81.5:1 ratio of doxorubicin to test compound after 48 hrs by MTT assay; assay type: cell-based
Assignment: determine reported CI for the given molecules.

Example entries begin here.
INSERT INTO results (smilesrepresentation, systemname, observedmeasurement) VALUES
  ('CC(C)(O)CC[C@@H]1OC(C)(C)O[C@]1(C)[C@H]1CC[C@@]2(O)C3=CC(=O)[C@@H]4C[C@H]5OC(C)(C)O[C@H]5C[C@]4(C)[C@H]3CC[C@]12C', 'ATP-dependent translocase ABCB1 (Homo sapiens, UniProt P08183)', 0.39),
  ('CC(C)(F)CC[C@@H]1OC(C)(C)O[C@]1(C)[C@H]1CC[C@@]2(F)C3=CC(=O)[C@@H]4C[C@H]5OC(C)(C)O[C@H]5C[C@]4(C)[C@H]3CC[C@]12C', 'ATP-dependent translocase ABCB1 (Homo sapiens, UniProt P08183)', 0.24),
  ('CC(C)(F)CC[C@@H]1OC(C)(C)O[C@]1(C)[C@H]1CC[C@@]2(O)C3=CC(=O)[C@@H]4C[C@H]5OC(C)(C)O[C@H]5C[C@]4(C)[C@H]3CC[C@]12C', 'ATP-dependent translocase ABCB1 (Homo sapiens, UniProt P08183)', 0.35);

Value sought for every listed molecule: CI.
1. CC(C)(F)CC[C@@H]1OC(C)(C)O[C@]1(C)[C@H]1CC=C2C3=CC(=O)[C@@H]4C[C@H]5OC(C)(C)O[C@H]5C[C@]4(C)[C@H]3CC[C@@]21C
2. CC(C)(O)CC[C@@H]1OC(C)(C)O[C@]1(C)[C@H]1CC=C2C3=CC(=O)[C@@H]4C[C@H]5OC(C)(C)O[C@H]5C[C@]4(C)[C@H]3CC[C@@]21C

Ans.
1. 0.78
2. 1.09
